The reported numbers originate from the kinase profiling compilation of Christmann-Franck et al. (2016).

Molecular target: STK11 (human)
Assay: KINOMEscan competition binding
Settings: compound 10.0 µM
reported-metric: kinase still bound, per cent of control (%)
Unit % implied. Number only.

Please review the entries below; each comes with its answer.
COc1cc(N2CCN(C)CC2)ccc1Nc1ncc2c(n1)N(C)c1ccccc1N(C)C2=O: 100
CN1C(=O)c2ccccc2N(C)c2nc(Nc3ccc(N4CCC(O)CC4)cc3)ncc21: 100
O=C1NC(=O)/C(=C/c2c[nH]c(=O)c(-c3ccc(N4CCNCC4)nc3)c2)S1: 17

Query compound follows.
Looking up `CSC1=NC(=O)/C(=C/c2c[nH]c(=O)c(-c3ccc(NS(C)(=O)=O)cc3)c2)S1` , I see its kinase still bound, per cent of control listed as 15
